Hey, just so you know, these numbers are from ChEMBL document CHEMBL2380203.

Reported Ratio IC50 values for a set of compounds
System: Candida albicans
Assay: Ratio of IC50 for Candida albicans MY1055 NADH:cytochrome bc1 reductase in presence of 40% mouse plasma to IC50 for Candida albicans MY1055 NADH:cytochrome bc1 reductase in absence of mouse plasma
I'd appreciate a reply containing only the number, no unit.

compound=C/C=C/[C@@H]1[C@H]2C[C@@H](C)CC[C@@H]2C(C)=C[C@H]1C(=O)c1c(O)c(-c2ccc(OC(=O)CCCCN)cc2)c[nH]c1=O system_name="Candida albicans" assay_readout="Ratio IC50" value=300
compound=C/C=C/[C@@H]1[C@H]2C[C@@H](C)CC[C@@H]2C(C)=C[C@H]1C(=O)c1c(O)c(-c2ccc(O)cc2)c[nH]c1=O system_name="Candida albicans" assay_readout="Ratio IC50" value=140
compound=C/C=C/[C@@H]1[C@H]2C[C@@H](COC(=O)C3CC3)CC[C@@H]2C(C)=C[C@H]1C(=O)c1c(O)c(-c2ccc(O)cc2)c[nH]c1=O system_name="Candida albicans" assay_readout="Ratio IC50" value=20
compound=C/C=C/[C@@H]1[C@H]2C[C@@H](C)CC[C@@H]2C(C)=C[C@H]1C(=O)c1c(O)c(-c2ccc(OC(=O)/C=C/c3cnc[nH]3)cc2)c[nH]c1=O system_name="Candida albicans" assay_readout="Ratio IC50" value=43

Q: Give the observed Ratio IC50 of C/C=C/[C@@H]1[C@H]2C[C@@H](COC(C)=O)CC[C@@H]2C(C)=C[C@H]1C(=O)c1c(O)c(-c2ccc(OC(C)=O)cc2)c[nH]c1=O for Candida albicans.
Ans: 7

Q: Give Ratio IC50; test system Candida albicans; compound C/C=C/[C@@H]1[C@H]2C[C@@H](C)CC[C@@H]2C(C)=C[C@H]1C(=O)c1c(O)c(-c2ccc(OC(=O)CCCN)cc2)c[nH]c1=O
Ans: 150

Q: Name the value of Ratio IC50 reported for C/C=C/[C@@H]1[C@H]2C[C@@H](C)CC[C@@H]2C(C)=C[C@H]1C(=O)c1c(O)c(-c2ccc(O)cc2)cn(CCN(CC)CC)c1=O when tested on Candida albicans.
Ans: 250

Q: Please indicate recorded Ratio IC50 of CC1=C[C@@H](C(=O)c2c(O)c(-c3ccc(O)cc3)c[nH]c2=O)[C@H]([C@@H]2OC2C)[C@H]2C[C@@H](C)CC[C@H]12 (stereo partly drawn) measured with Candida albicans.
Ans: 192

---

Assay: Inhibition of rat liver NADH:cytochrome bc1 reductase
Assay readout: IC50 (µg/mL)
# number only, unit µg/mL dropped from output

molecule=C/C=C/[C@@H]1[C@H]2C[C@@H](C)CC[C@@H]2C(C)=C[C@H]1C(=O)c1c(O)c(-c2ccc(OC(=O)C/C=C/c3ccccc3)cc2)c[nH]c1=O value=1.6
molecule=C/C=C/[C@@H]1[C@H]2C[C@@H](C)CC[C@@H]2[C@](C)(Br)[C@H]2Oc3ncc(-c4ccc(O)cc4)c(O)c3C(=O)[C@@H]12 value=1
molecule=C/C=C/[C@@H]1[C@H]2C[C@@H](C)CC[C@@H]2[C@](C)(I)[C@H]2Oc3ncc(-c4ccc(O)cc4)c(O)c3C(=O)[C@@H]12 value=1
molecule=C/C=C/[C@@H]1[C@H]2C[C@@H](C)CC[C@@H]2C(C)=C[C@H]1C(=O)c1c(O)c(-c2ccc(OC(=O)/C=C/c3cnc[nH]3)cc2)c[nH]c1=O value=0.008
molecule="CC1=C[C@@H](C(=O)c2c(O)c(-c3ccc(O)cc3)c[nH]c2=O)[C@H]([C@@H]2OC2C)[C@H]2C[C@@H](C)CC[C@H]12 (some centres not stated)" value=1

Q: For the molecule C/C=C/[C@@H]1[C@H]2C[C@@H](C)CC[C@@H]2[C@](C)(Br)[C@H]2Oc3ncc(-c4ccc(O)c(Br)c4Br)c(O)c3C(=O)[C@@H]12 , give its measured IC50 value.
Ans: 1

Q: Retrieve IC50 measured for C/C=C/[C@@H]1[C@H]2C[C@@H](C)CC[C@@H]2[C@](C)(Cl)[C@H]2Oc3ncc(-c4ccc(O)cc4)c(O)c3C(=O)[C@@H]12 and print it.
Ans: 1

Q: // fetch IC50 given entry C/C=C/[C@@H]1[C@H]2C[C@@H](C)CC[C@@H]2C(C)=C[C@H]1C(=O)c1c(O)c(-c2ccc(OCC#N)cc2)c[nH]c1=O
Ans: 1
